// data source = patent US20140039044A1

- Tested on: HL-60 cells
- method: Cell cycle distribution by flow cytometry
- Format: cell-based, human
- measurement_parameters: 50 μM, 24 h, Table 10

compound	measured_target	Cell Cycle Distribution G2/M
COc1cc(-c2cc(=O)c3c(O)c(OC)c(OC)c(OC)c3o2)cc(OC)c1OC [E]	HL-60 cells	7.73
COc1ccc(-c2oc3c(OC)c(OC)c(OC)c(O)c3c(=O)c2OC)cc1OC [Compound C]	HL-60 cells	11.64
COc1ccc(-c2oc3c(OC)c(OC)c(OC)c(OC)c3c(=O)c2OC)cc1OC [D, 3,5,6,7,8,3,4-heptamethoxyflavone, reference compound]	HL-60 cells	0.21
COc1c(OC)c(OC)c2c(=O)cc(-c3ccc(O)c(O)c3)oc2c1OC [H]	HL-60 cells	10.70
COc1ccc(-c2cc(=O)c3c(O)c(OC)c(OC)c(OC)c3o2)cc1OC [J]	HL-60 cells	7.93
COc1cc(-c2cc(=O)c3c(OC)c(OC)c(OC)c(OC)c3o2)ccc1O [Compound G]	HL-60 cells	12.18
COc1ccc(-c2cc(=O)c3c(OC)c(OC)c(OC)c(OC)c3o2)cc1OC [Compound A, 5,6,7,8,3′,4′-hexamethoxyflavone, reference compound]	HL-60 cells	7.67
COc1ccc(-c2oc3c(OC)c(OC)c(OC)c(OC)c3c(=O)c2O)cc1OC [B]	HL-60 cells	0.00
COc1ccc(-c2cc(=O)c3c(O)c(OC)c(OC)c(OC)c3o2)cc1O [Compound K]	HL-60 cells	45.05
COc1cc(-c2cc(=O)c3c(OC)c(OC)c(OC)c(OC)c3o2)cc(OC)c1OC [F, 5,6,7,8,3′,4′,5′-heptamethoxyflavone, reference compound]	HL-60 cells	8.44
COc1ccc(-c2cc(=O)c3c(OC)c(OC)c(OC)c(OC)c3o2)cc1O [I]	HL-60 cells	6.36

* * *

- Tested on: AGS cells
- method: Cell cycle distribution by flow cytometry
- Format: cell-based, human
- measurement_parameters: 10 μM, 24 h, Table 11
experimental_endpoint: Cell Cycle Distribution G0/G1

molecule	recorded_result
COc1ccc(-c2oc3c(OC)c(OC)c(OC)c(OC)c3c(=O)c2O)cc1OC	46.7
COc1cc(-c2cc(=O)c3c(OC)c(OC)c(OC)c(OC)c3o2)cc(OC)c1OC [F, 5,6,7,8,3′,4′,5′-heptamethoxyflavone, reference compound]	62.41
COc1ccc(-c2cc(=O)c3c(O)c(OC)c(OC)c(OC)c3o2)cc1O	22.20
COc1cc(-c2cc(=O)c3c(O)c(OC)c(OC)c(OC)c3o2)cc(OC)c1OC	56.96

* * *

- Tested on: AGS cells
- method: Cell cycle distribution by flow cytometry
- Type: cell-based, human
- measurement_parameters: 50 μM, 24 h, Table 11

compound	Cell Cycle Distribution S
COc1ccc(-c2cc(=O)c3c(O)c(OC)c(OC)c(OC)c3o2)cc1OC	31.45
COc1ccc(-c2cc(=O)c3c(O)c(OC)c(OC)c(OC)c3o2)cc1O	20.44
COc1ccc(-c2cc(=O)c3c(OC)c(OC)c(OC)c(OC)c3o2)cc1OC [Compound A, 5,6,7,8,3′,4′-hexamethoxyflavone, reference compound]	41.3
COc1ccc(-c2cc(=O)c3c(OC)c(OC)c(OC)c(OC)c3o2)cc1O	36.70
COc1ccc(-c2oc3c(OC)c(OC)c(OC)c(OC)c3c(=O)c2OC)cc1OC [D, 3,5,6,7,8,3,4-heptamethoxyflavone, reference compound]	45.7
COc1ccc(-c2oc3c(OC)c(OC)c(OC)c(OC)c3c(=O)c2O)cc1OC	51.2
COc1cc(-c2cc(=O)c3c(O)c(OC)c(OC)c(OC)c3o2)cc(OC)c1OC	29.79
COc1ccc(-c2oc3c(OC)c(OC)c(OC)c(O)c3c(=O)c2OC)cc1OC	50.1
